System: Fibroblast
procedure_details: Multiplex assay against human fibroblast
Format: toxicity, cell-based
experimental_setup: 48 h, 10 µM, compound concentration 10 uM, replicate 1
# Population Fragmented Nuclei (%) >= 40% gives true (1), anything below gives false (0)

Worked examples, 10 molecules total:
1) CN1C2CCC1CC(OC(c1ccc(F)cc1)c1ccc(F)cc1)C2.Cl (centres undefined)
true (1)
2) COc1cc(N2CCN(C)CC2)ccc1Nc1ncc2c(n1)N(C)c1ccccc1C(=O)N2C
true (1)
3) Cl.Oc1ccc2c3c1O[C@H]1c4[nH]c5c(c4C[C@@]4(O)[C@@H](C2)N(CC2CC2)CC[C@]314)C[C@@]1(O)[C@H]2Cc3ccc(O)c4c3[C@@]1(CCN2CC1CC1)[C@H]5O4
false (0)
4) Cl.O=C(c1ccc(Nc2nccc(-c3cc4ccccc4s3)n2)cc1)N1CCC(N2CCCC2)CC1
true (1)
5) O=C1N/C(=N/c2ccccc2F)S/C1=C\c1ccc(C(=O)O)cc1
true (1)
6) O=C(Nc1ccc(-n2nc(-c3cccnc3)cc2C(F)(F)F)cn1)c1ccc(-c2ccccc2)c(F)c1
false (0)
7) Cc1cn(-c2cc(NC(=O)c3ccc(C)c(Nc4nccc(-c5cccnc5)n4)c3)cc(C(F)(F)F)c2)cn1
true (1)
8) COCC(=O)NC/C=C/c1ccc2ncnc(Nc3ccc(Oc4ccc(C)nc4)c(C)c3)c2c1
false (0)
9) Cc1ccc(C(=O)Nc2cccc(C(F)(F)F)c2)cc1Nc1nc(-c2cccnc2)nc2c1cnn2C
true (1)
10) CN1CCN(C(=O)C(C)(C)c2ccc(C(=O)Nc3cn4cc(-c5ccncc5)ccc4n3)cc2)CC1
true (1)

Moving on to another molecule below.
Ask: Check the entry CNc1cc(Oc2cc(C(=O)Nc3cc(N4CCN(C)CC4)cc(C(F)(F)F)c3)ccc2C)ncn1 : does Population Fragmented Nuclei (%) equal or exceed 40%?
Result: true (1)

---

Tested on: HEK-293T
procedure_details: Multiplex assay against HEK293T
Format: toxicity, cell-based
experimental_setup: human, 24 h, 10 µM, compound concentration 10 uM, replicate 1
assay_readout: Population Mitotic Cells (%)
Form entry: value (%) — number only.

Reported Population Mitotic Cells (%) ( CCOc1cc2ncc(C#N)c(Nc3ccc(OCc4ccccn4)c(Cl)c3)c2cc1NC(=O)/C=C/CN(C)C [NERATINIB] ) = 49

Reported Population Mitotic Cells (%) ( COCC(=O)NC/C=C/c1ccc2ncnc(Nc3ccc(Oc4ccc(C)nc4)c(C)c3)c2c1 [CP-724714] ) = 28

Reported Population Mitotic Cells (%) ( O=C1NC(=O)C(c2cnc3ccccn23)=C1c1cn2c3c(cc(F)cc13)CN(C(=O)N1CCCCC1)CC2 [LY-2090314] ) = 13

---

Test system: HEK-293T
procedure_details: Multiplex assay against HEK293T
Format: toxicity, cell-based
experimental_setup: human, 12 h, 1 µM, compound concentration 1 uM, replicate 1
assay_readout: Population Fragmented Nuclei (%)

1. CCn1cc(-c2ccnc3[nH]c(-c4cccc(CN(C)C)c4)cc23)c(-c2ccc(NC(=O)N(C)C)cc2)n1 [GSK-1070916]
16%
2. Cl.O=C(c1ccc(Nc2nccc(-c3cc4ccccc4s3)n2)cc1)N1CCC(N2CCCC2)CC1
10%
3. C=CCn1c(=O)c2cnc(Nc3ccc(N4CCN(C)CC4)cc3)nc2n1-c1cccc(C(C)(C)O)n1 [ADAVOSERTIB]
23%

Let us examine a further case.
Reported Population Fragmented Nuclei (%) ( Cc1ccc(C(=O)Nc2cccc(C(F)(F)F)c2)cc1Nc1nc(-c2cccnc2)nc2c1cnn2C ) = 15%
